assay.overview: Drug concentrations in compartments of the murine FRT after IP dosing
Format: in vivo, mouse
condition.summary: mouse, plasma; female mice, 10 mg/kg IP, 24 hr; read-out: Plasma concentration
measure: concentration at 24 hr
Record the result as number plus unit.

[in] // lookup concentration at 24 hr for O=C(c1ccc(OCc2ccc(OC(F)(F)F)cc2)cc1)N1CCN(c2ccc(C(F)(F)F)cn2)CC1
[out] 610 nM

* * *

assay.overview: Plasma protein binding, equilibrium dialysis
Type: in vitro ADME
condition.summary: human, fraction unbound, equilibrium dialysis, 5 μM, read-out: Plasma Protein Binding (fu) Human
Assignment: determine reported fraction unbound at 6 h, 5 μM for the given compounds.

[in] Dear colleague, I am looking for the recorded fraction unbound at 6 h, 5 μM of the following compound: Cc1cc(Cl)cc2sc(O[C@@H]3CCN(C(=O)CCCS(=O)(=O)c4cccc(Br)c4)C[C@H]3F)nc12
[out] 0.002

[in] For Cc1cc(Cl)cc2sc(O[C@H]3CCN(C(=O)CCCS(=O)(=O)c4cccc(Br)c4)C[C@H]3F)nc12 then?
[out] 0.001

[in] Next compound up: Cc1cc(Cl)cc2sc(O[C@H]3CCN(C(=O)CCCS(=O)(=O)c4cccc(Br)c4)C[C@@H]3F)nc12
[out] 0.002

[in] Input Cc1cc(Cl)cc2sc(O[C@@H]3CCN(C(=O)CCCS(=O)(=O)c4cccc(Br)c4)C[C@@H]3F)nc12
[out] 0.001

[in] Okay, and O=C(c1ccc(OCc2ccc(OC(F)(F)F)cc2)cc1)N1CCN(c2ccc(C(F)(F)F)cn2)CC1 ?
[out] 0.0005

* * *

assay.overview: Drug concentrations in compartments of the murine FRT after IP dosing
Assay type: in vivo, mouse
condition.summary: mouse, uterus; female mice, 10 mg/kg IP, 1 hr; read-out: Uterus concentration
measure: concentration at 1 hr (µM)
Give a bare numeral; the unit µM is implied.

[in] Reported concentration at 1 hr, compound O=C(c1ccc(OCc2ccc(OC(F)(F)F)cc2)cc1)N1CCN(c2ccc(C(F)(F)F)cn2)CC1 [VU6032735] : ____
[out] 21.8

* * *

assay.overview: Kinetic solubility
Type: physicochemical
condition.summary: aqueous buffer, kinetic from dmso stock; pH 2.2; pH 6.8; read-out: Kinetic Solubility (pH 2.2; pH6.8)
measure: solubility kinetic

[in] Query: solubility kinetic; subject: O=C(c1ccc(OCc2ccc(OC(F)(F)F)cc2)cc1)N1CCN(c2ccc(C(F)(F)F)cn2)CC1
[out] < 0.95 µM

[in] Please do the same for Cc1cc(Cl)cc2sc(O[C@H]3CCN(C(=O)CCCS(=O)(=O)c4cccc(Br)c4)C[C@@H]3F)nc12 as well.
[out] < 0.85 µM

[in] Let us now turn to Cc1cc(Cl)cc2sc(O[C@@H]3CCN(C(=O)CCCS(=O)(=O)c4cccc(Br)c4)C[C@H]3F)nc12
[out] < 0.85 µM

[in] And then Cc1cc(Cl)cc2sc(O[C@@H]3CCN(C(=O)CCCS(=O)(=O)c4cccc(Br)c4)C[C@@H]3F)nc12 , what is it?
[out] < 0.85 µM

[in] Lookup Cc1cc(Cl)cc2sc(O[C@H]3CCN(C(=O)CCCS(=O)(=O)c4cccc(Br)c4)C[C@H]3F)nc12
[out] < 0.85 µM

* * *

Give measured clearance for each item. Keep answers brief.
assay.overview: In vivo IV pharmacokinetics, rat cassette
condition.summary: Sprague-Dawley, plasma, 0.2 mg/kg, male SD rats, 0.2 mpk IV, read-out: rat in vivo CLp
Kindly answer with a numeric value in mL/min/kg, unit omitted.

[in] Reported clearance, compound Cc1cc(Cl)cc2sc(O[C@H]3CCN(C(=O)CCCS(=O)(=O)c4cccc(Br)c4)C[C@H]3F)nc12 [VU6047606] : ____
[out] 40.1

[in] Another: Cc1cc(Cl)cc2sc(O[C@@H]3CCN(C(=O)CCCS(=O)(=O)c4cccc(Br)c4)C[C@@H]3F)nc12 [VU6047608]
[out] 56.7

[in] Also need O=C(c1ccc(OCc2ccc(OC(F)(F)F)cc2)cc1)N1CCN(c2ccc(C(F)(F)F)cn2)CC1 [VU6032735] , thanks.
[out] 29.3

[in] What about Cc1cc(Cl)cc2sc(O[C@@H]3CCN(C(=O)CCCS(=O)(=O)c4cccc(Br)c4)C[C@H]3F)nc12 [VU6047607] ?
[out] 71

[in] Cc1cc(Cl)cc2sc(O[C@H]3CCN(C(=O)CCCS(=O)(=O)c4cccc(Br)c4)C[C@@H]3F)nc12 [VU6047609] ?
[out] 73.8

* * *

Here we list compounds with their recorded IC50 when tested on CYP3A4 (Homo sapiens, UniProt P08684).
Sequence (P08684 whole entry, species assumed): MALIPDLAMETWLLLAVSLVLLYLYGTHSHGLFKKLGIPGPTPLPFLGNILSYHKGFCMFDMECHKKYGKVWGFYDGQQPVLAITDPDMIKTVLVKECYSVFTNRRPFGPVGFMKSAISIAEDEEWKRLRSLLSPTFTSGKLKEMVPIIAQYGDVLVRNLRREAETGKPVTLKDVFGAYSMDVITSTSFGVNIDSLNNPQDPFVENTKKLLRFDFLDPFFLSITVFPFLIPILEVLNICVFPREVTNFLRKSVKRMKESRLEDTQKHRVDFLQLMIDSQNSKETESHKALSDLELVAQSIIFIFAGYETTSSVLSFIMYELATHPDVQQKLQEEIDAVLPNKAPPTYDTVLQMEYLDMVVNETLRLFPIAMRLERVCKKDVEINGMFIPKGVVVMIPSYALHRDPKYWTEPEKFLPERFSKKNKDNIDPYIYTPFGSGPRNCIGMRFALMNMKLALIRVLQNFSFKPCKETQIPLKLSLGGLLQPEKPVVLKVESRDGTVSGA

[in] Find the recorded IC50 belonging to Cc1cc(Cl)cc2sc(O[C@H]3CCN(C(=O)CCCS(=O)(=O)c4cccc(Br)c4)C[C@H]3F)nc12 and report it.
[out] > 30 µM

[in] Here is the next compound: O=C(c1ccc(OCc2ccc(OC(F)(F)F)cc2)cc1)N1CCN(c2ccc(C(F)(F)F)cn2)CC1
[out] > 30 µM

* * *

assay.overview: Drug concentrations in compartments of the murine FRT after IP dosing
Type: in vivo, mouse
condition.summary: mouse, plasma; female mice, 10 mg/kg IP, 0.5 hr; read-out: Plasma concentration
measure: concentration at 0.5 hr (nM)
Lab book: enter the figure in nM, no units written.

[in] Name the recorded concentration at 0.5 hr for O=C(c1ccc(OCc2ccc(OC(F)(F)F)cc2)cc1)N1CCN(c2ccc(C(F)(F)F)cn2)CC1 .
[out] 450

* * *

assay.overview: Drug concentrations in compartments of the murine FRT after IP dosing
Format: in vivo, mouse
condition.summary: mouse, plasma; female mice, 10 mg/kg IP, 0.25 hr; read-out: Plasma concentration
measure: concentration at 0.25 hr (nM)
Write down the numeric answer in nM and omit the unit.

[in] Could you share which concentration at 0.25 hr value was measured for O=C(c1ccc(OCc2ccc(OC(F)(F)F)cc2)cc1)N1CCN(c2ccc(C(F)(F)F)cn2)CC1 [VU6032735] ?
[out] 1150

* * *

assay.overview: Drug concentrations in compartments of the murine FRT after IP dosing
Format: in vivo, mouse
condition.summary: mouse, ovary; female mice, 10 mg/kg IP, 3 hr; read-out: Ovary concentration
Description: Samples were analyzed via electrospray ionization (ESI) LC-MS/MS on an AB Sciex 4500 (Foster City, CA) triple-quadrupole instrument that was coupled with an Agilent 1290 Infinity Binary Pump and multisampler (Santa Clara, CA) and concentrations (ng/mL or ng/g) were determined using a matrix-matched 10-point standard curve and then converted to nM concentrations. Quantitation of compounds was performed via AB Sciex Multiquant software using the raw analyte:IS peak area ratios. […]
measure: concentration at 3 hr (nM)
Reply with just the number (in nM).

[in] Field request: concentration at 3 hr | item: O=C(c1ccc(OCc2ccc(OC(F)(F)F)cc2)cc1)N1CCN(c2ccc(C(F)(F)F)cn2)CC1 [VU6032735]
[out] 2630

* * *

The following are reported pIC50 results, target or system CYP2C9 (Homo sapiens).
pIC50: −log10 of the molar value.

[in] Can you look up pIC50 on CYP2C9 (Homo sapiens) for O=C(c1ccc(OCc2ccc(OC(F)(F)F)cc2)cc1)N1CCN(c2ccc(C(F)(F)F)cn2)CC1 [VU6032735] ?
[out] < 4.52

[in] Check Cc1cc(Cl)cc2sc(O[C@H]3CCN(C(=O)CCCS(=O)(=O)c4cccc(Br)c4)C[C@H]3F)nc12 [VU6047606] too.
[out] < 4.52

* * *

Task for the reader: assign each of the following molecules its reported selectivity ratio.
experimental.target: hERG (Homo sapiens)
Construct: expressed in transfected cells
Sequence (Q12809 whole entry): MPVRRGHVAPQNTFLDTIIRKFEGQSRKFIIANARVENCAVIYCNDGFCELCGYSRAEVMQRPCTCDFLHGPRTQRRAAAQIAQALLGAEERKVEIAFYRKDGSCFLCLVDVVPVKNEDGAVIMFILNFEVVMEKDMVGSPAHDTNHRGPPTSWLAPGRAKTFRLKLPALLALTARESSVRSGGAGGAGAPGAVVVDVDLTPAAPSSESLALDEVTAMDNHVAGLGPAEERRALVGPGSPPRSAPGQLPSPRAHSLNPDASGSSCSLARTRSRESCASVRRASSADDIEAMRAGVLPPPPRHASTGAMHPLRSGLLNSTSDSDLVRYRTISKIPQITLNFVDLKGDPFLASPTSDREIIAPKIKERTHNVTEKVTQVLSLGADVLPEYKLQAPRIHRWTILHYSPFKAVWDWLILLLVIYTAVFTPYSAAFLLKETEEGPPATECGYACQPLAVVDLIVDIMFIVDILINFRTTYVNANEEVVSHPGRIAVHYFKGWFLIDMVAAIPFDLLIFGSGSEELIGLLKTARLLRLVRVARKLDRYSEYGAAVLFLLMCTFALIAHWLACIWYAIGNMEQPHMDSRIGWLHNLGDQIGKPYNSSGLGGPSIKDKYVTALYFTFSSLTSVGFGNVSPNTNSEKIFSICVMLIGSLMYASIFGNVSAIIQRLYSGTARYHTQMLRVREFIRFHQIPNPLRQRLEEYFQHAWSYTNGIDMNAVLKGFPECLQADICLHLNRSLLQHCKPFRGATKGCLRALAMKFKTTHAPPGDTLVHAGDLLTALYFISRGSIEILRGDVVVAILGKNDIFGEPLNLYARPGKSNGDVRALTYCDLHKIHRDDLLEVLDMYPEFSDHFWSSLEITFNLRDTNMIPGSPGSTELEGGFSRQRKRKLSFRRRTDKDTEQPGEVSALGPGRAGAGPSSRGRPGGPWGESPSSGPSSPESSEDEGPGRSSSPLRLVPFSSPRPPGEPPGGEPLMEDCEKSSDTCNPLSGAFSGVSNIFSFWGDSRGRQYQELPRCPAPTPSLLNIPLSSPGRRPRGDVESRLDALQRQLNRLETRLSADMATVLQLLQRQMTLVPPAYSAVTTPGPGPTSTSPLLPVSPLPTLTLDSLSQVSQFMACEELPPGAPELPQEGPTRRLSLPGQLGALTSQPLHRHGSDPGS
assay.overview: hERG patch clamp electrophysiology (HEK-293-hERG)
Type: cell-based
condition.summary: human, HEK-293 cells stably expressing hERG, pH 7.35, hERG IC50 / hSLO3 IC50; read-out: hERG selectivity [fold] (SLO3 versus hERG)
Reply with just the number.

[in] Which selectivity ratio value is on record for Cc1cc(Cl)cc2sc(OC3CCN(C(=O)CCCS(=O)(=O)c4cccc(Br)c4)CC3F)nc12 (stereo not shown) ?
[out] 555

[in] // next record O=C(CCCS(=O)(=O)c1ccc(Cl)cc1)N1CCC(Oc2nc3ccccc3s2)CC1
[out] 4.2

[in] Then this molecule: O=C(c1ccc(OCc2nc(C3CC3)cs2)cc1)N1CCN(c2ccc(C(F)(F)F)cn2)CC1
[out] 1.1

[in] Further, for O=C(c1ccc(OCc2ccc(OC(F)(F)F)cc2)cc1)N1CCN(c2ccc(C(F)(F)F)cn2)CC1 ?
[out] 172

* * *

assay.overview: Plasma protein binding, equilibrium dialysis
Assay type: in vitro ADME
condition.summary: rat, equilibrium dialysis, 5 μM, read-out: Plasma Protein Binding (fu) Rat
Kindly supply the reported fraction unbound at 6 h, 5 μM values for the records listed here.

[in] Which fraction unbound at 6 h, 5 μM value belongs to Cc1cc(Cl)cc2sc(O[C@H]3CCN(C(=O)CCCS(=O)(=O)c4cccc(Br)c4)C[C@H]3F)nc12 [VU6047606] ?
[out] 0.001

[in] Repeat with Cc1cc(Cl)cc2sc(O[C@@H]3CCN(C(=O)CCCS(=O)(=O)c4cccc(Br)c4)C[C@H]3F)nc12 [VU6047607]
[out] 0.004

[in] Please give the result for Cc1cc(Cl)cc2sc(O[C@@H]3CCN(C(=O)CCCS(=O)(=O)c4cccc(Br)c4)C[C@@H]3F)nc12 [VU6047608] too.
[out] 0.002

[in] Now consider Cc1cc(Cl)cc2sc(O[C@H]3CCN(C(=O)CCCS(=O)(=O)c4cccc(Br)c4)C[C@@H]3F)nc12 [VU6047609] and answer again.
[out] 0.004

[in] Entry to check: O=C(c1ccc(OCc2ccc(OC(F)(F)F)cc2)cc1)N1CCN(c2ccc(C(F)(F)F)cn2)CC1 [VU6032735]
[out] 0.024
